meta.source: patent US20180355059A1

Quick list: OD450 nm per entry.
biological target: T1, recombinant human PCSK9-His protein (Immunogen A) (human, UniProt Q8NBP7 31-692, limits assumed, biotinylated in the ELISA assays); assay: ELISA; antibody 0.00067 nM
T1 construct: also called hPCSK9-His; His-tagged hPCSK9; not shown: His tag
Just the number in OD450 nm, nothing appended.

# Binder, Quantitative Readout
records = [
    ("139G1C5, fully human anti-PCSK9 antibody (antibody, human IgG1, V domains shown) VH: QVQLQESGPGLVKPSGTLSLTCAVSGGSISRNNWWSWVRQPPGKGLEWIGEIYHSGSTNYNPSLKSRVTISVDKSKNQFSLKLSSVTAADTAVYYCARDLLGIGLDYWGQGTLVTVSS VL: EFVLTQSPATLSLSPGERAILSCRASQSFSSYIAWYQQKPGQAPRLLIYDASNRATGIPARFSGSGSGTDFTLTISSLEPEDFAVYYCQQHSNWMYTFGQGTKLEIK", 0.08),
]

input: Which OD450 nm is listed for 74C10A8, fully human anti-PCSK9 antibody (antibody, human IgG1, V domains shown) VH: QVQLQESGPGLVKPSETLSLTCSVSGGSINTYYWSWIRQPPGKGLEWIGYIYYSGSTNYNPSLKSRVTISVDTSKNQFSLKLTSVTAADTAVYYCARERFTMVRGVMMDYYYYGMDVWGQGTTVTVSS VL: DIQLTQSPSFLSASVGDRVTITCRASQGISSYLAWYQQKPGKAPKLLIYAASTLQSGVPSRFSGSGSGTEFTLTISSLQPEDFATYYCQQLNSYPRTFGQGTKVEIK ?
output: 0.08

input: And the next one, 76A1B11, fully human anti-PCSK9 antibody (antibody, human IgG1, V domains shown) VH: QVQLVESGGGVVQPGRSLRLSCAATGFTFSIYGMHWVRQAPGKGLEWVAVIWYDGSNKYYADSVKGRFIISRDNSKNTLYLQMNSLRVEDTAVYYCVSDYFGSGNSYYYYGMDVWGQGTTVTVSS VL: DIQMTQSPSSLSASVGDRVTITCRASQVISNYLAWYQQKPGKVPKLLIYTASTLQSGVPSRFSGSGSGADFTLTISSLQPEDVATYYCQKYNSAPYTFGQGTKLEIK ?
output: 0.07
